In this section we review reported pKd values for a set of binders.
assayedSystem: T1, human FcRH5 protein fragment (soluble) (human, UniProt Q96RD9 16-851)
T1 construct: whole entry named; also called soluble human FcRH5; Human FcRH5 (BIACORE analyte)
T1 sequence: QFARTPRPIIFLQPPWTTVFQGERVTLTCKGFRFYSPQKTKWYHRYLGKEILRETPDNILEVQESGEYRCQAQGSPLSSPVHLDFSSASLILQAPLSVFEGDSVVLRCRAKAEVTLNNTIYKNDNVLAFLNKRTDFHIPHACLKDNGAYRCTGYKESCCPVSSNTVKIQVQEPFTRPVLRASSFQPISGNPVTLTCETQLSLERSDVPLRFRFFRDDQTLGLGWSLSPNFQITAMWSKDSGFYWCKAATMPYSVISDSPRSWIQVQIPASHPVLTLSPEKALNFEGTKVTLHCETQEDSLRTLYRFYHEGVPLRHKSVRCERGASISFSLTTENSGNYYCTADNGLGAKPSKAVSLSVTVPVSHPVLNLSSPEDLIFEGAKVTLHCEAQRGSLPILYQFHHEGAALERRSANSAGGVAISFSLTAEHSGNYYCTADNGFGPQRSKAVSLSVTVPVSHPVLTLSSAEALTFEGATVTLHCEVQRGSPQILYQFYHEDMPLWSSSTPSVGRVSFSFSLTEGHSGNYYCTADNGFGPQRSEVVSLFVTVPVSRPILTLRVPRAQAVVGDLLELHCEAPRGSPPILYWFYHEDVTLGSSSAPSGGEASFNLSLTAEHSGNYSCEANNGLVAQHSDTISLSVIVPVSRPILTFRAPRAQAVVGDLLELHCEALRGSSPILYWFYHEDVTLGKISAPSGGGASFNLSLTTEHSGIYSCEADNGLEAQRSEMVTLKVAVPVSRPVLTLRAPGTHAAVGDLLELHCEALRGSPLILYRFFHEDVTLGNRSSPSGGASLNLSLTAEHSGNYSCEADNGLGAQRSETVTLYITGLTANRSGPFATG
procedureText: SPR, hIgG capture, screening
Please keep in mind that pKd is minus log10 of the molar concentration; only the number is needed.

pKd lookup needed for hu1G7.v1 heavy chain W52H with light chain of hu1G7.v1.6 (antibody, V domains shown, human IgG) VH: EVQLVESGPGLVKPSETLSLTCTVSGFSLTRFGVHWVRQPPGKGLEWLGVIHRGGSTDYNAAFMSRLTISKDNSKNQVSLKLSSVTAADTAVYYCSNHYYGSSDYALDNWGQGTLVTVSS VL: DIQMTQSPSSLSASVGDRVTITCKASQDVSNIVVWFQQKPGKAPKLLIYSGYYRYSGVPSRFSGSGSGTDFTLTISSLQPEDFATYYCQQQYQPPYTFGQGTKVEIK , thanks.
6.96

Continue with the binder presented below.
pKd lookup needed for hu1G7.v87 (antibody, V domains shown, Human IgG) VH: EVQLVESGPGLVKPSETLSLTCTVSGFSLTRFGVHWVRQPPGKGLEWLGVIWRGGSTDYNAAFVSRLTISKDNSKNQVSLKLSSVTAADTAVYYCSNHYYGSSDYALDNWGQGTLVTVSS VL: DIQMTQSPSSLSASVGDRVTITCKASQDVSNIVVWFQQKPGKSPKLLIYSASYRYTGVPSRFSGSGSGTDFTLTISSLQPEDFATYYCQQHYSSPYTFGQGTKVEIK , thanks.
7.57
